The measured values listed here are drawn from ChEMBL document CHEMBL1122451.

assay: Anticonvulsant activity expressed as toxic dose in rotarod test (0.5 hr) in mice;Activity determined at time of peak effect (0.5 hr) and value ranges from(47-65).; format: ADME, organism-based; details: mouse, in vivo
outcome_measure: TD50 at 0.5 h (mg/kg)
Output spec: scalar in mg/kg, unitless text.

Input Cc1ccccc1-n1c(C)nc2ccccc2c1=O . Output TD50 at 0.5 h: 55

###

test: Anticonvulsant activity expressed as toxic dose in rotarod test (0.5 hr) in mice;Value ranges from(36-43).; assay type: ADME, organism-based; details: mouse, in vivo
outcome_measure: TD50 at 0.5 h (mg/kg)
Output spec: scalar in mg/kg, unitless text.

Input Cc1ccccc1-n1c(C)nc2cccnc2c1=O . Output TD50 at 0.5 h: 40

###

assay: Anticonvulsant activity expressed as toxic dose in rotarod test (0.5 hr) in mice;Activity determined at time of peak effect (0.5 hr); format: ADME, organism-based; conditions: mouse, in vivo
outcome_measure: TD50 at 0.5 h (mg/kg)
Output spec: scalar in mg/kg, unitless text.

Input Cc1nc2cccnc2c(=O)n1-c1ccccc1C(F)(F)F . Output TD50 at 0.5 h: 100

###

As shown below, each of these compounds has a reported TD50 at 0.5 h value.
test: Anticonvulsant activity expressed as toxic dose in rotarod test (0.5 hr) in mice; format: toxicity, organism-based; conditions: mouse, in vivo
Output spec: scalar in mg/kg, unitless text.

COC(=O)c1c(C)c(C)cc2c(=O)n(-c3ccccc3F)c(C)nc12 : 280
Cc1nc2cccnc2c(=O)n1-c1ccc(C(F)(F)F)cc1 : 170
COC(=O)c1c(C)c(C)cc2c(=O)n(-c3cccc(F)c3)c(C)nc12 : 540

Now consider the entry below.
Input Cc1nc2cccnc2c(=O)n1-c1cccc(C(F)(F)F)c1 . Output TD50 at 0.5 h: 50
